molecular target: Cannabinoid receptor 2 (Homo sapiens) (UniProt P34972); assay: Agonist activity at CBR2 (unknown origin) assessed as [35S]GTPgammaS binding at 10 uM by […] assay relative to control; assay type: functional
Sequence (P34972 whole entry): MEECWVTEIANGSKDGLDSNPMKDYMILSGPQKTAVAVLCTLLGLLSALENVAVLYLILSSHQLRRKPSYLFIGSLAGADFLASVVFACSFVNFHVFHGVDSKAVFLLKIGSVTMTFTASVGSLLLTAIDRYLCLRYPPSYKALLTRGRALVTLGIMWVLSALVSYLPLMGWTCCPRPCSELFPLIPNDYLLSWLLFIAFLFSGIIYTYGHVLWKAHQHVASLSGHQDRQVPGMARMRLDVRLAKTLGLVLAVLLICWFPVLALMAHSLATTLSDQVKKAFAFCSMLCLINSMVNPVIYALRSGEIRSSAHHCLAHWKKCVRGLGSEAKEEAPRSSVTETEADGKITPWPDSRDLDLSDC
Give measured Activity for each item. Keep answers brief.
Give bare numbers, in %.

Worked cases, Activity given:
INSERT INTO measurements (compound_structure_string, measurement_unit, experimental_value) VALUES
  ('NS(=O)(=O)c1ccc(NC(=S)NC(=O)c2ccc(-c3ccccc3)cc2)cc1', '%', 95),
  ('O=C(NCc1ccccc1)c1ccc(NC(=S)NC(=O)c2ccc(-c3ccccc3)cc2)cc1', '%', 111),
  ('CC(C)CNS(=O)(=O)c1ccc(NC(=S)NC(=O)c2ccc(-c3ccccc3)cc2)cc1', '%', 85),
  ('CC(C)NS(=O)(=O)c1ccc(NC(=S)NC(=O)c2ccc(-c3ccccc3)cc2)cc1', '%', 96),
  ('O=C(NC(=S)Nc1ccc(S(=O)(=O)NCc2ccc(F)cc2)cc1)c1ccc(-c2ccccc2)cc1', '%', 87);

Take each entry in turn and give its Activity.
1. Cc1ccc(C(=O)NC(=S)Nc2ccc(S(=O)(=O)NC(C)C)cc2)c(Br)c1
2. O=C(NC(=S)Nc1ccc(S(=O)(=O)NCCc2c[nH]c3ccccc23)cc1)c1ccc(-c2ccccc2)cc1
3. C=CCN(CC=C)S(=O)(=O)c1ccc(NC(=S)NC(=O)c2ccc(-c3ccccc3)cc2)cc1
4. COc1ccc(CNS(=O)(=O)c2ccc(NC(=S)NC(=O)c3ccc(-c4ccccc4)cc3)cc2)cc1

1: 88; 2: 96; 3: 100; 4: 103

====

molecular target: UniProtKB Q8N2K0; assay: Inhibition of human ABHD12 expressed in […] cells using 2-AG as substrate assessed as glycerol liberation at 1 uM preincubated for 30 mins followed by 2-AG addition measured for 90 mins by fluorescent glycerol assay relative to control; assay type: cell-based; design: scale not given: the % may be the effect or the level left
Sequence (Q8N2K0 whole entry): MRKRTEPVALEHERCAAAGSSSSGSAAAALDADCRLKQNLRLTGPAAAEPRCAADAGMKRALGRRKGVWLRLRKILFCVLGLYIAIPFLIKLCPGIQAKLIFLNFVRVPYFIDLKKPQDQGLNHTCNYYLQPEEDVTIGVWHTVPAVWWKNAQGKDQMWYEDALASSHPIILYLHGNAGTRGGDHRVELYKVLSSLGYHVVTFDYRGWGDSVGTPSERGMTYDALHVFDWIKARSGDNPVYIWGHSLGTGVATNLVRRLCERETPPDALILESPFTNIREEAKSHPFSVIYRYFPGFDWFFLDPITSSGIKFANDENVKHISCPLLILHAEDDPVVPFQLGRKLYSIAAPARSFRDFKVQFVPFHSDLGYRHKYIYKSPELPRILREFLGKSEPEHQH
Give measured Activity for each item. Keep answers brief.
Numbers only, in %.

Worked cases, Activity given:
INSERT INTO results (compound_structure_string, target_entity, property_measured, experimental_value) VALUES
  ('O=C(NC(=S)Nc1ccc(S(=O)(=O)NCCc2ccccc2)cc1)c1ccc(-c2ccccc2)cc1', 'UniProtKB Q8N2K0', 'Activity', 101),
  ('COc1ccc(CNS(=O)(=O)c2ccc(NC(=S)NC(=O)c3ccc(-c4ccccc4)cc3)cc2)cc1', 'UniProtKB Q8N2K0', 'Activity', 100),
  ('O=C(NCc1ccccc1)c1ccc(NC(=S)NC(=O)c2ccc(-c3ccccc3)cc2)cc1', 'UniProtKB Q8N2K0', 'Activity', 100),
  ('Cc1ccc(C(=O)NC(=S)Nc2ccc(S(=O)(=O)NC(C)(C)C)cc2)cc1', 'UniProtKB Q8N2K0', 'Activity', 100),
  ('O=C(NC(=S)Nc1ccc(S(=O)(=O)NCc2ccc(F)cc2)cc1)c1ccc(-c2ccccc2)cc1', 'UniProtKB Q8N2K0', 'Activity', 96);

Take each entry in turn and give its Activity.
1. Cc1ccc(CNS(=O)(=O)c2ccc(NC(=S)NC(=O)c3ccc(-c4ccccc4)cc3)cc2)cc1
2. O=C(NC(=S)Nc1ccc(S(=O)(=O)NCc2ccc(I)cc2)cc1)c1ccc(-c2ccccc2)cc1
3. C=CCN(CC=C)S(=O)(=O)c1ccc(NC(=S)NC(=O)c2ccc([N+](=O)[O-])cc2)cc1

1: 103; 2: 100; 3: 102

Return reported Activity. Input compound: CC(C)CNS(=O)(=O)c1ccc(NC(=S)NC(=O)c2ccc(-c3ccccc3)cc2)cc1
95
